TARGET_UNDER_TEST: T1, human PD-L1-mFc fusion protein (Sino Biological, Cat #10084-H05H) (human, UniProt Q9NZQ7 19-239)
T1 construct: Bought protein; also called human PD-L1 mouse Fc fusion protein; not shown: mouse Fc
RUN_DESCRIPTION: competition ELISA, coated human PD-L1-mFc, competitor human PD-1-His-hFc-Biotin

BINDER	RESULT_UNIT	IC50
56H3 (antibody, human IgG1, V domains shown) VH: QEQLVESGGGLVQPEGSLTLTCTASEFSFSNNYYMSWVRQAPGKGLEWLGSIGIGSGITDYASWAKGRFTISKASSTTVTLQMTTLTAADTAIYFCARWTSGGGGFGLWGPGTLVTVSS VL: QVLTQTSSPVSAAVGGTVTINCQSSQTIYSDYLFWYQQKPGQPPKLLIYQTSTLASGVPSRFSGSGSGTQFTLTISGVQCDDAATYYCQGYYSGYIWTFGGGTEVVVN	nM	2.1

Reference for the values: patent US20250171542A1
